# system under test: cardiac glycoside (CG) binding site (digitalis receptor) of heart muscle
# measurement protocol: 3H-ouabain radioligand binding assay (RBA)
# Design: species or system dog
# test conditions: cardiac receptor of heart muscle; membranes from dog myocardium; read-out: binding / displacement potency in the 3H-ouabain RBA (IC50)
quantity name: pIC50
Give bare numbers, as −log10 of the molar value.

- compound: "CC(=O)O[C@]1(C(C)=O)CC[C@H]2[C@@H]3CCC4=CC(=O)CC[C@]4(C)[C@H]3CC[C@@]21C [17a, 17α-acetoxyprogesterone]"
  numeric readout: 4.12
- compound: "C[C@]12CC[C@H](O)C[C@H]1CC[C@@H]1[C@@H]2CC[C@]2(C)C(=O)CC[C@]12O"
  numeric readout: 3.48
- compound: "C[C@@H](O)[C@H]1CC[C@]2(O)[C@@H]3CC[C@@H]4C[C@@H](O[C@@H]5O[C@H](CO)[C@@H](O)[C@H](O)[C@H]5O)CC[C@]4(C)[C@H]3CC[C@]12C"
  numeric readout: 6.40
- compound: "CC(=NO)[C@H]1CC[C@]2(O)[C@@H]3CC[C@@H]4C[C@@H](O[C@@H]5O[C@@H](C)[C@H](O)[C@@H](O)[C@H]5O)CC[C@]4(C)[C@H]3CC[C@]12C"
  numeric readout: 6.82

Working through the 2 compounds below one at a time, give pIC50 for each.
1. C[C@]12CCC(=O)C=C1CC[C@@H]1[C@@H]2C(=O)C[C@]2(C)C(=O)CC[C@@H]12
2. CC(=O)[C@H]1C[C@H]2O[C@]23[C@@H]2CCC4=CC(=O)CC[C@]4(C)[C@H]2CC[C@]13C

Result string:
1. 3.23
2. 3.87
